tgt: tyrosinase
experiment notes: spectrophotometric tyrosinase inhibition assay with L-DOPA as substrate
Assay type: biochemical, Bacillus subtilis NCTC 10400
test conditions: L-DOPA substrate, unit inferred, read-out: IC50 (unit inferred)
pIC50: −log10 of the molar value.
property: pIC50

# Cc1cc(=O)oc2cc(OC(=O)CSc3nnc(-c4cc5cc(Br)ccc5o4)n3-c3ccccc3)ccc12 [Compound 17d] with tyrosinase: pIC50 is 5.23

A: Cc1cc(=O)oc2cc(OC(=O)CSc3nnc(-c4cc5ccccc5o4)n3-c3ccccc3)ccc12 [Compound 17a]
B: COc1ccc(-n2c(SCC(=O)Oc3ccc4c(C)cc(=O)oc4c3)nnc2-c2cc3cc(Br)ccc3o2)cc1 [Compound 17e]
C: COc1ccc(-n2c(SCC(=O)Oc3ccc4c(C)cc(=O)oc4c3)nnc2-c2cc3cc(Cl)ccc3o2)cc1 [Compound 17g]
**Query** # sort list by recorded pIC50, greatest to least Please respond with the labels ordered as the question requires.
**Result** B, C, A
